Biological target: FXR (Homo sapiens, UniProt Q96RI1)
Sequence (Q96RI1 262-486 limits assumed): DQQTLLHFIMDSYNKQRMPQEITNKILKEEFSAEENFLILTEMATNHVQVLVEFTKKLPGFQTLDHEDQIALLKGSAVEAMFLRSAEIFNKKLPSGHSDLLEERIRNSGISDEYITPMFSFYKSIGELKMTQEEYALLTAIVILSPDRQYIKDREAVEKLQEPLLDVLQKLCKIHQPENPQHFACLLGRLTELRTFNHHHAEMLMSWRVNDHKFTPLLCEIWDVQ
Experiment: GeneBLAzer FXR cell-based antagonistic assay (in presence of 400 nM GW4064)
Parameters: the Gal4 DBD was fused to the LBD of FXR in this assay; host or cells: GeneBLAzer FXR-UAS-bla HEK 293T cells
Details: read-out: GB FXR Cell Anta. % Inh.
Protocol: A GeneBLAzer FXR cell-based assay was used to investigate the cellular activities of the 1,3,4-trisubstituted-pyrazol-4-carboxamide analogs. […] FXR transactivation assays were performed using GeneBLAzer FXR-UAS-bla HEK 293T cells (Invitrogen). […] Plates were then incubated in dark for 90 min at room temperature before measuring the fluorescent emissions at 460 nm and 535 nm (using excitation at 400 nm) with an Envision plate reader with bottom read capacity. […]
inhibition at 40 µM values for the compounds below.
Experimental endpoint: inhibition at 40 µM (%)

Cc1ccc(-c2nn(C(C)C)cc2CNc2ccc(C)c(S(=O)(=O)N3CCOCC3)c2)cc1 [Compound 9-1] = 36.8
Cc1ccc(-c2nn(C(C)C)cc2C(=O)N(C)c2ccc(C)c(S(=O)(=O)N3CCOCC3)c2)cc1 [Compound 8-1] = 86.4
COCCc1nn(Cc2cccc(OC)c2)cc1C(=O)Nc1ccc(C)c(S(=O)(=O)N2CCOCC2)c1 [Compound 4s] = 95.9
Cc1ccc(-c2nn(-c3cccc(C(F)(F)F)c3)cc2C(=O)Nc2ccc(C)c(S(=O)(=O)N3CCOCC3)c2)cc1 [Compound 4d] = 54.8
COc1cccc(Cn2cc(C(=O)Nc3ccc(C)c(S(=O)(=O)N4CCOCC4)c3)c(-c3ccc(C)cc3)n2)c1 [Compound 4j] = 98.9
Cc1ccc(-c2nn(C(C)C)cc2C(=O)Nc2ccc(C)c(S(=O)(=O)N3CCOCC3)c2)cc1 [Compound 4f] = 99.1
COc1cccc(Cn2cc(CNc3ccc(C)c(S(=O)(=O)N4CCOCC4)c3)c(C(C)C)n2)c1 [Compound 9-2] = 64.8
Cc1ccc(-c2nn(-c3ccc(F)cc3)cc2C(=O)Nc2ccc(C)c(S(=O)(=O)N3CCOCC3)c2)cc1 [Compound 4a] = 72
Cc1ccc(-c2nn(Cc3ccc4ccccc4c3)cc2C(=O)Nc2ccc(C)c(S(=O)(=O)N3CCOCC3)c2)cc1 [Compound 4h] = 84.4
Cc1ccc(-c2nn(CCCCO)cc2C(=O)Nc2ccc(C)c(S(=O)(=O)N3CCOCC3)c2)cc1 [Compound 4l] = 97.6
Cc1ccc(NC(=O)c2cn(C(C)C)nc2-c2ccc(C(F)(F)F)cc2)cc1S(=O)(=O)N1CCOCC1 [Compound 4p] = 100
Cc1ccc(-c2nn(Cc3cccc(C(F)(F)F)c3)cc2C(=O)Nc2ccc(C)c(S(=O)(=O)N3CCOCC3)c2)cc1 [Compound 4k] = 93.4
COCCc1nn(C(C)C)cc1C(=O)Nc1ccc(C)c(S(=O)(=O)N2CCOCC2)c1 [Compound 4r] = 62.5
COc1cccc(Cn2cc(C(=O)Nc3ccc(C)c(S(=O)(=O)N4CCOCC4)c3)c(-c3ccc(C(F)(F)F)cc3)n2)c1 [Compound 4q] = 97.6
Cc1ccc(-c2nn(CC3CC3)cc2C(=O)Nc2ccc(C)c(S(=O)(=O)N3CCOCC3)c2)cc1 [Compound 4i] = 100
COc1cccc(-c2nn(C(C)C)cc2C(=O)Nc2ccc(C)c(S(=O)(=O)N3CCOCC3)c2)c1 [Compound 4n] = 97.8
COc1cccc(Cn2cc(C(=O)N(C)c3ccc(C)c(S(=O)(=O)N4CCOCC4)c3)c(-c3cccc(OC)c3)n2)c1 [Compound 8-3] = 23.8
